# ASSAY_PROCEDURE: Particle size distribution (d10, d50, d90) by laser diffraction
# Type: physicochemical
# ASSAY_CONTEXT: spray dried amorphous ipatasertib monohydrochloride powder
Counter-ions that a name gives are not always drawn.

COMPOUND	Particle size d90 [μm]
CC(C)NC[C@@H](C(=O)N1CCN(c2ncnc3c2[C@H](C)C[C@H]3O)CC1)c1ccc(Cl)cc1 [Composition 140910416, ipatasertib monohydrochloride]	52
CC(C)NC[C@@H](C(=O)N1CCN(c2ncnc3c2[C@H](C)C[C@H]3O)CC1)c1ccc(Cl)cc1 [Composition 140910418, ipatasertib monohydrochloride]	52
CC(C)NC[C@@H](C(=O)N1CCN(c2ncnc3c2[C@H](C)C[C@H]3O)CC1)c1ccc(Cl)cc1 [Composition 141210423, ipatasertib monohydrochloride]	56
CC(C)NC[C@@H](C(=O)N1CCN(c2ncnc3c2[C@H](C)C[C@H]3O)CC1)c1ccc(Cl)cc1 [Composition 141210426, ipatasertib monohydrochloride]	43
CC(C)NC[C@@H](C(=O)N1CCN(c2ncnc3c2[C@H](C)C[C@H]3O)CC1)c1ccc(Cl)cc1 [Composition 140110407, ipatasertib monohydrochloride]	28

* * *

# ASSAY_PROCEDURE: Solid state by X-ray powder diffraction
# Format: physicochemical
# ASSAY_CONTEXT: * indicates absence of crystalline API; monohydrochloride
# From the text: Bragg's law describes the diffraction of crystalline material with the equation “2d·sin(theta)=n·lambda”, wherein “d” denotes perpendicular distance (in Angstroms) between pairs of adjacent planes in a crystal (“d-spacing”), “theta” denotes the Bragg angle, “lambda” denotes the wavelength and “n” is an integer. When Bragg's law is fulfilled, the reflected beams are in phase and interfere constructively so that Bragg diffraction peaks are observed in the X-ray diffraction pattern. […]
Counter-ions that a name gives are not always drawn.

COMPOUND	Solid state / Polymorphy (X-Ray, XRPD)
CC(C)NC[C@@H](C(=O)N1CCN(c2ncnc3c2[C@H](C)C[C@H]3O)CC1)c1ccc(Cl)cc1 [Composition 140210412, ipatasertib monohydrochloride]	amorphous*
CC(C)NC[C@@H](C(=O)N1CCN(c2ncnc3c2[C@H](C)C[C@H]3O)CC1)c1ccc(Cl)cc1 [Composition 140910417, ipatasertib monohydrochloride]	amorph.*
CC(C)NC[C@@H](C(=O)N1CCN(c2ncnc3c2[C@H](C)C[C@H]3O)CC1)c1ccc(Cl)cc1 [Composition 140910420, ipatasertib monohydrochloride]	amorph.*
CC(C)NC[C@@H](C(=O)N1CCN(c2ncnc3c2[C@H](C)C[C@H]3O)CC1)c1ccc(Cl)cc1 [Composition 140110402, ipatasertib monohydrochloride]	amorphous*
CC(C)NC[C@@H](C(=O)N1CCN(c2ncnc3c2[C@H](C)C[C@H]3O)CC1)c1ccc(Cl)cc1 [Composition 130710452, ipatasertib monohydrochloride]	Amorphous*
CC(C)NC[C@@H](C(=O)N1CCN(c2ncnc3c2[C@H](C)C[C@H]3O)CC1)c1ccc(Cl)cc1 [Composition 130710451, ipatasertib monohydrochloride]	Amorphous*
CC(C)NC[C@@H](C(=O)N1CCN(c2ncnc3c2[C@H](C)C[C@H]3O)CC1)c1ccc(Cl)cc1 [Composition 140110411, ipatasertib monohydrochloride]	amorphous*

* * *

# ASSAY_PROCEDURE: Bulk density, tapped density and Carr index
# Assay type: physicochemical
# ASSAY_CONTEXT: spray dried amorphous ipatasertib monohydrochloride powder; monohydrochloride
Structures can show the parent of a compound that is named as a salt.
Tapped density for assorted compounds
MEASURE: Tapped density (gcm^−3)

COMPOUND	OBSERVED_VALUE
CC(C)NC[C@@H](C(=O)N1CCN(c2ncnc3c2[C@H](C)C[C@H]3O)CC1)c1ccc(Cl)cc1 [Composition 140110404, ipatasertib monohydrochloride]	0.63
CC(C)NC[C@@H](C(=O)N1CCN(c2ncnc3c2[C@H](C)C[C@H]3O)CC1)c1ccc(Cl)cc1 [Composition 141210424, ipatasertib monohydrochloride]	0.54
CC(C)NC[C@@H](C(=O)N1CCN(c2ncnc3c2[C@H](C)C[C@H]3O)CC1)c1ccc(Cl)cc1 [Composition 130710450, ipatasertib monohydrochloride]	0.60

* * *

Particle size d50 for assorted molecules
# ASSAY_PROCEDURE: Particle size distribution (d10, d50, d90) by laser diffraction
# Format: physicochemical
# ASSAY_CONTEXT: spray dried amorphous ipatasertib monohydrochloride powder
Structures can show the parent of a compound that is named as a salt.

MOLECULE	Particle size d50 / μm
CC(C)NC[C@@H](C(=O)N1CCN(c2ncnc3c2[C@H](C)C[C@H]3O)CC1)c1ccc(Cl)cc1 [Composition 140110409, ipatasertib monohydrochloride]	35
CC(C)NC[C@@H](C(=O)N1CCN(c2ncnc3c2[C@H](C)C[C@H]3O)CC1)c1ccc(Cl)cc1 [Composition 140910416, ipatasertib monohydrochloride]	27
CC(C)NC[C@@H](C(=O)N1CCN(c2ncnc3c2[C@H](C)C[C@H]3O)CC1)c1ccc(Cl)cc1 [Composition 140910418, ipatasertib monohydrochloride]	26

* * *

# ASSAY_PROCEDURE: Particle size distribution (d10, d50, d90) by laser diffraction
# Assay type: physicochemical
# ASSAY_CONTEXT: spray dried amorphous ipatasertib monohydrochloride powder
# Source text: FIG. 6 illustrates particle size distribution of the material of Example 6C (Batch HQ00003) spray dried with two-feed nozzle as obtained by laser diffraction A bimodal particle size distribution is obvious. […]
Where a name gives a salt, the structure may show the parent alone.

COMPOUND	Particle size d10, μm
CC(C)NC[C@@H](C(=O)N1CCN(c2ncnc3c2[C@H](C)C[C@H]3O)CC1)c1ccc(Cl)cc1 [Example 6C, ipatasertib monohydrochloride]	0.7
CC(C)NC[C@@H](C(=O)N1CCN(c2ncnc3c2[C@H](C)C[C@H]3O)CC1)c1ccc(Cl)cc1 [Composition 141210424, ipatasertib monohydrochloride]	9.5
CC(C)NC[C@@H](C(=O)N1CCN(c2ncnc3c2[C@H](C)C[C@H]3O)CC1)c1ccc(Cl)cc1 [Composition 140110409, ipatasertib monohydrochloride]	11.3
CC(C)NC[C@@H](C(=O)N1CCN(c2ncnc3c2[C@H](C)C[C@H]3O)CC1)c1ccc(Cl)cc1 [Composition 141210426, ipatasertib monohydrochloride]	8.5
CC(C)NC[C@@H](C(=O)N1CCN(c2ncnc3c2[C@H](C)C[C@H]3O)CC1)c1ccc(Cl)cc1 [Composition 130810453, ipatasertib monohydrochloride]	6.6

* * *

# ASSAY_PROCEDURE: Bulk density, tapped density and Carr index
# Type: physicochemical
# ASSAY_CONTEXT: spray-dried amorphous ipatasertib monohydrochloride, rotary wheel atomizer; monohydrochloride
Counter-ions that a name gives are not always drawn.

COMPOUND	Bulk density [gcm^−3]
CC(C)NC[C@@H](C(=O)N1CCN(c2ncnc3c2[C@H](C)C[C@H]3O)CC1)c1ccc(Cl)cc1 [BS1506SA02, ipatasertib monohydrochloride]	0.40
CC(C)NC[C@@H](C(=O)N1CCN(c2ncnc3c2[C@H](C)C[C@H]3O)CC1)c1ccc(Cl)cc1 [BS1506SA01, ipatasertib monohydrochloride]	0.41
CC(C)NC[C@@H](C(=O)N1CCN(c2ncnc3c2[C@H](C)C[C@H]3O)CC1)c1ccc(Cl)cc1 [BS1506SA03, ipatasertib monohydrochloride]	0.39
CC(C)NC[C@@H](C(=O)N1CCN(c2ncnc3c2[C@H](C)C[C@H]3O)CC1)c1ccc(Cl)cc1 [BS1506SA08, ipatasertib monohydrochloride]	0.43
CC(C)NC[C@@H](C(=O)N1CCN(c2ncnc3c2[C@H](C)C[C@H]3O)CC1)c1ccc(Cl)cc1 [BS1506SA04, ipatasertib monohydrochloride]	0.40
CC(C)NC[C@@H](C(=O)N1CCN(c2ncnc3c2[C@H](C)C[C@H]3O)CC1)c1ccc(Cl)cc1 [BS1506SA05, ipatasertib monohydrochloride]	0.41
CC(C)NC[C@@H](C(=O)N1CCN(c2ncnc3c2[C@H](C)C[C@H]3O)CC1)c1ccc(Cl)cc1 [BS1506SA06, ipatasertib monohydrochloride]	0.41
CC(C)NC[C@@H](C(=O)N1CCN(c2ncnc3c2[C@H](C)C[C@H]3O)CC1)c1ccc(Cl)cc1 [BS1506SA07, ipatasertib monohydrochloride]	0.42

* * *

# ASSAY_PROCEDURE: Particle size distribution (d10, d50, d90) by laser diffraction
# Assay type: physicochemical
# ASSAY_CONTEXT: spray dried amorphous ipatasertib monohydrochloride powder
Counter-ions that a name gives are not always drawn.
Note to self: values exactly at 50 μm are condition met. So Particle size d90 at or above 50 μm is condition met, below is condition not met.

MOLECULE	CAT
CC(C)NC[C@@H](C(=O)N1CCN(c2ncnc3c2[C@H](C)C[C@H]3O)CC1)c1ccc(Cl)cc1 [6A′, ipatasertib monohydrochloride]	condition not met
CC(C)NC[C@@H](C(=O)N1CCN(c2ncnc3c2[C@H](C)C[C@H]3O)CC1)c1ccc(Cl)cc1 [6B′, ipatasertib monohydrochloride]	condition not met
CC(C)NC[C@@H](C(=O)N1CCN(c2ncnc3c2[C@H](C)C[C@H]3O)CC1)c1ccc(Cl)cc1 [Composition 140910417, ipatasertib monohydrochloride]	condition met
CC(C)NC[C@@H](C(=O)N1CCN(c2ncnc3c2[C@H](C)C[C@H]3O)CC1)c1ccc(Cl)cc1 [Composition 140910419, ipatasertib monohydrochloride]	condition met
CC(C)NC[C@@H](C(=O)N1CCN(c2ncnc3c2[C@H](C)C[C@H]3O)CC1)c1ccc(Cl)cc1 [Composition 130710450, ipatasertib monohydrochloride]	condition met
CC(C)NC[C@@H](C(=O)N1CCN(c2ncnc3c2[C@H](C)C[C@H]3O)CC1)c1ccc(Cl)cc1 [Composition 130710452, ipatasertib monohydrochloride]	condition not met

Reference source for all entries: patent US12440492B2
